- assayed.target: BEC1 potassium channel (Homo sapiens)
- Construct: expressed in transfected cells
- Sequence (Q9ULD8 whole entry): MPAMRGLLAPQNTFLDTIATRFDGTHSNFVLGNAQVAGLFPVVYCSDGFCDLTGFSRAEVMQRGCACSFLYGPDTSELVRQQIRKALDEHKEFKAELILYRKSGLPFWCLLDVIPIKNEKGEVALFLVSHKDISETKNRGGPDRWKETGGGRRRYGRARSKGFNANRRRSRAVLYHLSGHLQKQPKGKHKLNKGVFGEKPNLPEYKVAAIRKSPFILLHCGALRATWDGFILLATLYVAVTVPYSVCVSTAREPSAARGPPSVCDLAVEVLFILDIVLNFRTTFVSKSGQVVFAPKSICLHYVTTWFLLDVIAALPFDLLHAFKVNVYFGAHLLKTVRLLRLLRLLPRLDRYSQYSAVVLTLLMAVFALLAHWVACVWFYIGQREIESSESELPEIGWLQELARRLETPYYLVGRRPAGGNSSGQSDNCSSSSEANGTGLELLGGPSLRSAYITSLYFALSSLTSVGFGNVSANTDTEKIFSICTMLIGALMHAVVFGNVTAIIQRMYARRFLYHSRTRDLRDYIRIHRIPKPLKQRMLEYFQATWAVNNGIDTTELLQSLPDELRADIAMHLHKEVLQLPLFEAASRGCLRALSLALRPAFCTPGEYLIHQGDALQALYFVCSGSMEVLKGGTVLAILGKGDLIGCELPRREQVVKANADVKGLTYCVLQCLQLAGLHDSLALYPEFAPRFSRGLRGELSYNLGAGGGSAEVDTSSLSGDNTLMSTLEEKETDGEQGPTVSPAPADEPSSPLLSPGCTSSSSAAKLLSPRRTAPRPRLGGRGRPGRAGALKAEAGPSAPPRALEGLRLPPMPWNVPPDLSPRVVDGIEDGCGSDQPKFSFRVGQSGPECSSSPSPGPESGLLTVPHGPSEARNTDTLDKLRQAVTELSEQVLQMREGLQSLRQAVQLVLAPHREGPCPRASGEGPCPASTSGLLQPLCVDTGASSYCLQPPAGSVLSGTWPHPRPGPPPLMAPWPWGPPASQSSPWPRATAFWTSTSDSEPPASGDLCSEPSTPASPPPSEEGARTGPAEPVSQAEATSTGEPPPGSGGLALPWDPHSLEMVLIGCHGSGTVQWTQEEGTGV
- protocol: BEC1 inhibitory activity, 86Rb ion release from BEC1 expressing cells
- Format: cell-based
- applied.conditions: BEC1 stably expressing CHO (dhfr-deficient) cells, 100 mM KCl stimulation, 86Rb release; as free form; read-out: IC50 (μM) (Example 1)
- Protocol: Method for measuring BEC1 inhibitory activity of compound utilizing 86Rb ion release amount as index The channel activity of BEC1 was measured according to the method described in U.S. Pat. No. 6,326,168 or U.S. Pat. No. 7,375,222, herein incorporated by reference, utilizing the release of the ions of radioactive isotope 86Rb from BEC1 expressing cells as an index. […]
Counter-ions that a name gives are not always drawn.
parameter: IC50 (µM)

compound	parameter	output.unit	data.value
Fc1ccc(Nc2nc(NCc3ncccn3)nc(Nc3ccc(F)cc3)n2)cc1 [Compound 2a]	IC50	µM	0.065
Cc1ccc(Nc2nc(NCc3ccnc(F)c3)nc(Nc3ccc(F)cc3)n2)cc1 [Compound 7, hydrochloride]	IC50	µM	0.24
COc1cccc(Nc2nc(NCc3ccnc(F)c3)nc(Nc3ccc(F)cc3)n2)c1 [Compound 10, hydrochloride]	IC50	µM	0.25
Fc1ccc(Nc2nc(NCc3ncccn3)nc(Nc3ccccc3)n2)cc1 [Compound 1]	IC50	µM	0.077
COc1ccc(Nc2nc(NCc3ncccn3)nc(Nc3ccc(F)cc3)n2)cc1 [Compound 3]	IC50	µM	0.092
Fc1ccc(Nc2nc(NCc3ccncn3)nc(Nc3ccc(F)cc3)n2)cc1 [Compound 4]	IC50	µM	0.058
COc1ccc(Nc2nc(NCc3ccnc(F)c3)nc(Nc3ccc(F)cc3)n2)cc1 [Compound 8, hydrochloride]	IC50	µM	0.17

// data source = patent US20100256152A1
